Each record here notes measured glycan array binding signal (z-score).
biological target: Gal(b1-3)GlcNAc(b1-3)Gal(b1-3)GlcNAc; assay: glycan array binding signal (z-score within array); higher = stronger binding; settings: glycan notation: IUPAC condensed, linker removed
Many of the other results were omitted from the sample, so the strongest signals are more common in it than they were.
Lab note: jot the number down without any unit.

// solved cases for glycan array binding signal (z-score) follow
[in] Sample GNL (Galanthus nivalis) (protein) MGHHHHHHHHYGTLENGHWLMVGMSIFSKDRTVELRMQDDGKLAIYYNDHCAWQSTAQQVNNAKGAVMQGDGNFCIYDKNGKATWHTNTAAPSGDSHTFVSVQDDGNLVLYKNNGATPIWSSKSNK — what was its glycan array binding signal (z-score)?
[out] -0.228

[in] Sample Cohesin-hMARCO (Homo sapiens) (protein) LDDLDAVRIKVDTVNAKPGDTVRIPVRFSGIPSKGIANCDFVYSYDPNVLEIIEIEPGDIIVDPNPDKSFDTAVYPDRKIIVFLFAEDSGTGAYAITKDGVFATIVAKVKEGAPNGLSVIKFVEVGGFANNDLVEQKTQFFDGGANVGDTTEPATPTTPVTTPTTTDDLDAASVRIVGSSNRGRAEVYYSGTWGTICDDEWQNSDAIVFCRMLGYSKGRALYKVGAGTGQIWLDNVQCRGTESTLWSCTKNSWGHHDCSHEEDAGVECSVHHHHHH — what was its glycan array binding signal (z-score)?
[out] -0.434

***
[in] Sample GALT1 615 (Arabidopsis thaliana), Q8L7F9 (protein) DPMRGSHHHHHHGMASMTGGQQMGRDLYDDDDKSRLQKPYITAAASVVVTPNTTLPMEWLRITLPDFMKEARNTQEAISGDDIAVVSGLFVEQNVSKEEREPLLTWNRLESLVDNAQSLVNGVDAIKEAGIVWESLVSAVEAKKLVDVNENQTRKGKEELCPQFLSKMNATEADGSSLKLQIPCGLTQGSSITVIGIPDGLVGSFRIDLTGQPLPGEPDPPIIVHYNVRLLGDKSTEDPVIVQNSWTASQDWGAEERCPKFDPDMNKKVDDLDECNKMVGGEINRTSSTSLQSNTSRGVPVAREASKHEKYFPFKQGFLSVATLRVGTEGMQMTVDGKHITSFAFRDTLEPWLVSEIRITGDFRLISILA — what was its glycan array binding signal (z-score)?
[out] -0.271

[in] Sample Thrombomodulin (Mus musculus) (protein) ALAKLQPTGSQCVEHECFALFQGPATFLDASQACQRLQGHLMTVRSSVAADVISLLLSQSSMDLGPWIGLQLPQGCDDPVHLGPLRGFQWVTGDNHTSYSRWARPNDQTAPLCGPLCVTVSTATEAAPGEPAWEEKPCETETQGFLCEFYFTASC — what was its glycan array binding signal (z-score)?
[out] 0.083

[in] Sample AMA (Arum maculatun) (protein) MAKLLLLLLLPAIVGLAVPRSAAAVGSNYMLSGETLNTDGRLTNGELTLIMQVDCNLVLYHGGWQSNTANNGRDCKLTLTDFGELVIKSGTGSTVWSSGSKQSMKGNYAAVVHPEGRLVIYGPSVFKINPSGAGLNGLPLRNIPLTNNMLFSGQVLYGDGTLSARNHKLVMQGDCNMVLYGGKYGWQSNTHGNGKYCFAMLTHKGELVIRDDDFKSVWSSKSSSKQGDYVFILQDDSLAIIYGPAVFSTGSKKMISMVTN — what was its glycan array binding signal (z-score)?
[out] -0.207
